Biological target: Pry3 CAP domain (Pry3-CAP) (Saccharomyces cerevisiae, UniProt P47033)
Sequence (P47033 18-161): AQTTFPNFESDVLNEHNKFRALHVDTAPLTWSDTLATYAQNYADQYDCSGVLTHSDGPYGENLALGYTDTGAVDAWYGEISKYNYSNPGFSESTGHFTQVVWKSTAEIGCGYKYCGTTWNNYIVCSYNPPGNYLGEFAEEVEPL
value.type: Kd (µM)
Report the figure in µM without appending any unit label.

State the recorded Kd for this entry: CC(C)CCC[C@@H](C)[C@H]1CC[C@H]2[C@@H]3CC=C4C[C@@H](O)CC[C@]4(C)[C@H]3CC[C@]12C
13.1

###

Target: Pry1 CAP domain (Saccharomyces cerevisiae, UniProt P47032)
Sequence (P47032 20-299 limits assumed): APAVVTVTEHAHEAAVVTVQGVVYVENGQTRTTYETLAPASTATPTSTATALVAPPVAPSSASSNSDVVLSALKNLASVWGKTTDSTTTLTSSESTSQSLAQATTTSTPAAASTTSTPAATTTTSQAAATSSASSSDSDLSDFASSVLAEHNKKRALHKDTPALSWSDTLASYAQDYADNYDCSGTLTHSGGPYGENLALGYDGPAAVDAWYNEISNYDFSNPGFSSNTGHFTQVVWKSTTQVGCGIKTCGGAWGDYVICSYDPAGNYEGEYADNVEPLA
Assay: radioligand binding, Q-sepharose adsorption, scintillation counting
value.type: Kd (µM)
Reply numerically in µM, unit not repeated.

May I ask what Kd has been recorded for CCCCCCCCCCCCCCCC(=O)O [palmitic acid] ?
111
